study_system: T1, FLT3xCD3 TCE SEQ ID NO 93
T1 construct: Single-chain scFv-scFv-scFc T cell engager; also called FLT3×CD3ε TCE; FLT3_7 A8xCD3-scFc Bispecific HLE molecule
assay_explanation: kinetics, Table 5
Where no end group is shown, it is not given here. Side-chain parts run from the residue outwards. [ ]: non-standard residue; d: D form. pGlu = O=C1CC[C@@H](C(=O)O)N1; disulfide = not defined here
The threshold is 0.006 s⁻¹. Values of koff beneath it are tagged YES; values meeting or exceeding it are tagged NO.

// known answers, use as guide
binder="QDGNEEMGK [QDGNEEMG-K]" cat=NO
binder="QDGNEEMGKQDGNEEMG [QDGNEEMG-K-QDGNEEMG]" cat=YES

Task: Strictly below 0.006 s⁻¹: is that where koff of [pGlu]DGNEEMGKGMEENGDQC([disulfide-4‑arm PEG 20 kDa]) (reading uncertain; also: four peptides on one 4-arm PEG, printed as pGlu-DGNEEMGKGMEENGDQC, also called CD3ε PepPOL, v2; Pep-PEG v2) [(pGlu-DGNEEMGKGMEENGDQC)4 -PEG(20 kDa)] sits?
Output: YES

Task: Strictly below 0.006 s⁻¹: is that where koff of QDGNEEMGGMEENGDQ (how the reversed half is joined is not explained) [QDGNEEMG-GMEENGDQ] sits?
Output: YES

Task: Strictly below 0.006 s⁻¹: is that where koff of QDGNEEMG sits?
Output: NO

Task: Strictly below 0.006 s⁻¹: is that where koff of QDGNEEMGKGMEENGDQC(4‑arm PEG 20 kDa) (also: four peptides on one 4-arm PEG, Peptide-PEG conjugate with four peptides on one PEG; also called CD3ε PepPOL, v1 (20 kDa); 4-arm 20 kDa PepPOL conjugate) [(QDGNEEMGKGMEENGDQC)4 -PEG(20 kDa)] sits?
Output: YES
